System: B16 (melanoma) cells
Test: MTT cytotoxicity assay, B16 cells
Conditions: Mus musculus, B16, 72 h, read-out: IC50 (μM) B16, 72 h exposure, MTT, mean of three independent experiments
READOUT_LABEL: IC50 (µM)
Respond numerically; units are µM and should not be typed.

Consider the worked cases shown below.
>>> measured("COc1ccc(/C=C2\\CN(Cc3ccccc3)C/C(=C\\c3ccc(OC)c(OC)c3)C2=O)cc1OC [ID-7]")
2
>>> measured("COc1ccc(/C=C2\\CN(C(C)C)C/C(=C\\c3ccc(OC)c(O)c3)C2=O)cc1O [IC-5]")
1.1
>>> measured("COc1ccc(/C=C2\\CN(c3ccccc3)C/C(=C\\c3ccc(OC)c(O)c3)C2=O)cc1O [IE-5]")
19
>>> measured("COc1ccc(/C=C2\\CNC/C(=C\\c3ccc(OC)c(O)c3)C2=O)cc1O [IA-5]")
3
>>> measured("COc1ccc(/C=C2\\CN(Cc3ccccc3)C/C(=C\\c3ccc(OC)c(O)c3)C2=O)cc1O [ID-5]")
2.4

Now consider a different compound.
Inquiry: Entry COc1ccc(/C=C2\CNC/C(=C\c3ccc(OC)c(OC)c3)C2=O)cc1OC [IA-7] has what IC50?
Reply text: 2.3

###

Experiment: Aqueous solubility (MultiScreen Solubility Filter Plate, shake-flask based)
Details: aqueous buffer with 5% DMSO, pH 7.4, aqueous with cosolvent or surfactant or cyclodextrin, kinetic from dmso stock
READOUT_LABEL: solubility at 6 h (µM)
Quick reminder: number only, in µM, skip the unit.

Completed entries (count: 2):
>>> measured("COc1cc(/C=C2\\CN(c3ccccc3)C/C(=C\\c3cc(OC)c(OC)c(OC)c3)C2=O)cc(OC)c1OC")
200
>>> measured("COc1cc(/C=C2\\CN(C)C/C(=C\\c3cc(OC)c(OC)c(OC)c3)C2=O)cc(OC)c1OC")
160

Inquiry: Any idea what its solubility at 6 h is? The molecule is COc1cc(/C=C2\CN(Cc3ccccc3)C/C(=C\c3cc(OC)c(OC)c(OC)c3)C2=O)cc(OC)c1OC
Reply text: 210

Inquiry: I would be grateful if you could share the reported solubility at 6 h for COc1cc(/C=C2\CNC/C(=C\c3cc(OC)c(OC)c(OC)c3)C2=O)cc(OC)c1OC .
Reply text: 70

###

Tested on: B16 (melanoma) cells
Experiment: MTT cytotoxicity assay, B16 cells
Conditions: Mus musculus, B16, 72 h, read-out: IC50 (μM) B16, 72 h exposure, MTT, mean of three independent experiments
READOUT_LABEL: log10 IC50 (log10 of the value in µM)
Values below are the log10 of the recorded IC50, with µM as the unit.

>>> measured("CN1C/C(=C\\c2ccccc2)C(=O)/C(=C/c2ccccc2)C1 [IB-1]")
0.70
>>> measured("Cc1ccc(/C=C2\\CN(C(C)C)C/C(=C\\c3ccc(C)cc3)C2=O)cc1 [IC-2]")
0.60
>>> measured("COc1ccc(/C=C2\\CN(Cc3ccccc3)C/C(=C\\c3ccc(OC)cc3)C2=O)cc1 [ID-4]")
1.43
>>> measured("COc1cc(/C=C2\\CNC/C(=C\\c3ccc(O)c(OC)c3)C2=O)ccc1O [IA-6]")
0.11

Inquiry: Sample O=C1/C(=C/c2ccccc2)CN(c2ccccc2)C/C1=C\c1ccccc1 [IE-1] — what was its log10 IC50?
Reply text: 0.85

Inquiry: Value lookup for log10 IC50; key = COc1cc(/C=C2\CN(C(C)C)C/C(=C\c3ccc(O)c(OC)c3)C2=O)ccc1O [IC-6]
Reply text: 0.34

Inquiry: Requested field: log10 IC50. Item: COc1cc(/C=C2\CN(c3ccccc3)C/C(=C\c3cc(OC)c(OC)c(OC)c3)C2=O)cc(OC)c1OC [IE-8]
Reply text: -0.52

Inquiry: Which log10 IC50 is listed for COc1ccc(/C=C2\CN(c3ccccc3)C/C(=C\c3ccc(OC)c(OC)c3)C2=O)cc1OC [IE-7] ?
Reply text: 0.11

Inquiry: Please look up its log10 IC50: COc1cc(/C=C2\CN(C)C/C(=C\c3cc(OC)c(OC)c(OC)c3)C2=O)cc(OC)c1OC [IB-8]
Reply text: -0.51

Inquiry: What log10 IC50 value was documented for this molecule, COc1cc(/C=C2\CNC/C(=C\c3cc(OC)c(OC)c(OC)c3)C2=O)cc(OC)c1OC [IA-8] ?
Reply text: -0.52

Inquiry: Value lookup for log10 IC50; key = O=C1/C(=C/c2ccccc2)CNC/C1=C\c1ccccc1 [IA-1]
Reply text: 0.70

Inquiry: What value of log10 IC50 has been reported for the following molecule? COc1ccc(/C=C2\CN(C)C/C(=C\c3ccc(OC)cc3)C2=O)cc1 [IB-4]
Reply text: 1.36

Inquiry: log10 IC50 lookup needed for CC(C)N1C/C(=C\c2ccc([N+](=O)[O-])cc2)C(=O)/C(=C/c2ccc([N+](=O)[O-])cc2)C1 [IC-3] , thanks.
Reply text: 0.57

###

Reported IC50 values for a set of molecules
Test system: L1210 (lymphoma) cells
Experiment: MTT cytotoxicity assay, L1210 cells
Conditions: Mus musculus, L1210, 72 h, read-out: IC50 (μM) L1210, 72 h exposure, MTT, mean of three independent experiments

Please review the following examples before continuing.
>>> measured("COc1ccc(/C=C2\\CN(C)C/C(=C\\c3ccc(OC)c(O)c3)C2=O)cc1O [IB-5]")
"0.8 to 1.9 µM"
>>> measured("COc1cc(/C=C2\\CN(C(C)C)C/C(=C\\c3cc(OC)c(OC)c(OC)c3)C2=O)cc(OC)c1OC [IC-8]")
"25 to 65 µM"
>>> measured("COc1ccc(/C=C2\\CN(C)C/C(=C\\c3ccc(OC)c(OC)c3)C2=O)cc1OC [IB-7]")
"0.8 to 1.9 µM"

Then there is this molecule:
Inquiry: Field request: IC50 | item: O=C1/C(=C/c2ccc([N+](=O)[O-])cc2)CN(Cc2ccccc2)C/C1=C\c1ccc([N+](=O)[O-])cc1 [ID-3]
Reply text: 2 µM

###

Test system: B16 (melanoma) cells
Experiment: MTT cytotoxicity assay, B16 cells
Settings: Mus musculus, B16, 72 h, read-out: IC50 (μM) B16, 72 h exposure, MTT, mean of three independent experiments
READOUT_LABEL: IC50

>>> measured("COc1ccc(/C=C2\\CN(c3ccccc3)C/C(=C\\c3ccc(OC)cc3)C2=O)cc1")
"25 to 65 µM"
>>> measured("COc1cc(/C=C2\\CN(C)C/C(=C\\c3ccc(O)c(OC)c3)C2=O)ccc1O")
"1.3 to 2.1 µM"
>>> measured("Cc1ccc(/C=C2\\CN(c3ccccc3)C/C(=C\\c3ccc(C)cc3)C2=O)cc1")
"> 100 µM"

Proceeding to the next compound to report its IC50.
Inquiry: Can you look up the measured IC50 of COc1ccc(/C=C2\CNC/C(=C\c3ccc(OC)cc3)C2=O)cc1 for me?
Reply text: 25 to 65 µM
